target: SARS‐CoV‐2 RdRp complex (nsp12, nsp7, nsp8) (Severe acute respiratory syndrome coronavirus 2); test: Fluorescence-based RdRp polymerase assay (SYBR Green I RNA extension); type: biochemical; details: 50 min, read-out: residual activity (RA) of the SARS‐CoV‐2 RdRp complex
MEASURE: remaining activity at 10 µM (%)
Enter your answer as a number in %; do not include the unit.

{"columns": ["STRUCTURE", "MEASURE", "MEAS VALUE"],
 "data": [
  ["COC(=O)c1cc(NC(=O)Nc2cccc(F)c2)cc(C(=O)OC)c1", "remaining activity at 10 µM", 100]
]}

Consider FC(F)(F)c1ccc2nc(-c3nc4cc(Cl)c(Cl)cc4[nH]3)[nH]c2c1 . Its measured remaining activity at 10 µM is 42

Entry under test: COC(=O)c1cc(NC(=O)Nc2ccc([N+](=O)[O-])cc2)cc(C(=O)OC)c1 . Its remaining activity at 10 µM was 50

// field: remaining activity at 10 µM; key: COC(=O)c1cc(NC(=O)Nc2cccc([N+](=O)[O-])c2)cc(C(=O)OC)c1 ; value = 51

// recorded remaining activity at 10 µM for O=C(Nc1cccc([N+](=O)[O-])c1)NC1CC1 : 100

All figures here come from paper PMC11617668.
